These measurements were taken from PubChem BioAssay (NCI).

- Test system: BT-549 breast
- experimental_details: NCI-60 one-dose screen, 48 h (100 = growth as untreated, 0 = no growth, -100 = all killed)
- protocol_conditions: 10 µM unless noted
This is part of a sample that, as a whole, favours compounds with a hit. Of some 83,000 tested, about 20% had one in any assay.
This listing pairs molecules with measured growth.
readout_name: growth (%)

molecule	assay_system	output_unit	measured_result
Cc1ccc(C(O)C2=CC(=O)c3ccccc3C2=O)cc1 (stereo not given)	BT-549 breast	%	63.1
CCC(c1ccccc1)c1noc(CCN(CC)CC)n1 (stereo not given)	BT-549 breast	%	84.6
Cc1cc(NCCCNc2ccnc3cc(Cl)ccc23)nc(N2CCN(C)CC2)n1	BT-549 breast	%	95.6
NS(=O)(=O)c1ccc(NC2=C(Cl)C(=O)c3ccccc3C2=O)cc1	BT-549 breast	%	84.4
CC(=O)c1nc2ccccc2n1CCn1cc(CC(N)C(=O)O)c2ccccc21 (stereo not given)	BT-549 breast	%	105
